# assay system: SARS-CoV-2 Main Protease (SARS-CoV-2)
# protocol conditions: 20.0 µM
measure name: inhibition (%)
One number for each entry, in %.

>>> recorded_measurement("O=C(CCl)N1CCCC(c2nc(-c3cccnc3)nc3ccccc23)C1 (stereo not given)")
7.84
>>> recorded_measurement("Cc1ccncc1NC(=O)CCc1ccn[nH]1")
18.9
>>> recorded_measurement("CCN(CC)S(=O)(=O)c1ccc(NC(=O)Nc2cn(C)c(=O)c3ccccc23)cc1")
0.771
>>> recorded_measurement("Cc1cc(C(C)(C)C)ccc1OC[C@H](O)Cn1cnccc1=O (stereo in doubt)")
-3.67
>>> recorded_measurement("Cc1ccncc1NC(=O)Cc1ccc2[nH]ncc2c1")
-1.11
>>> recorded_measurement("C=CC(=O)N(c1ccc(C(C)(C)C)cc1)C(C(=O)Nc1ccc2c(c1)OCO2)c1cccnc1 (stereo not given)")
41.1
>>> recorded_measurement("O=C1C(=O)N(Cc2ncon2)c2ccc(Br)cc21")
-1.88
>>> recorded_measurement("COc1ccccc1OCCNC(=O)c1cc(=O)[nH]c2cc(F)ccc12")
-6.6
>>> recorded_measurement("C=CC(=O)N(c1ccc(C(F)(F)F)cc1)C(C(=O)NCCc1cccc(F)c1)c1cncc(O)c1 (stereo not given)")
26.8

Consider the record given below.
Query: GET /values?readout=inhibition&system=SARS-CoV-2 Main Protease (SARS-CoV-2)&item= C=CC(=O)NCC(=O)N(CCN1CCOCC1)Cc1ccccc1Cl
Reply: -18.3
